Biological target: MLKL (Homo sapiens)
Sequence (Q8NB16 whole entry): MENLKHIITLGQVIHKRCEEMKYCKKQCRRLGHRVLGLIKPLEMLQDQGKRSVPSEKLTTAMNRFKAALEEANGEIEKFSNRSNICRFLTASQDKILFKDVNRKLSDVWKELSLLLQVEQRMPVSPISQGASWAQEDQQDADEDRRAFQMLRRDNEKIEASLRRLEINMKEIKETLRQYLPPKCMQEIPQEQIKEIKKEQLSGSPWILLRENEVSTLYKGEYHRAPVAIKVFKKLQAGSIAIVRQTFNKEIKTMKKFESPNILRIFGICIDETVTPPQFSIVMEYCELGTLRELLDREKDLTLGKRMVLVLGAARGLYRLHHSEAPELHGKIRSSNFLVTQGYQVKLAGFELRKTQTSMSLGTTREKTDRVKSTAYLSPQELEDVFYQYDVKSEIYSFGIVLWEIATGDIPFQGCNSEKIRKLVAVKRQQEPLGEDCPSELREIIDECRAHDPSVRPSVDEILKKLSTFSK
Assay: MLKL degradation assay in HepG2 cell line (western blot)
Format: cell-based
Parameters: endogenous in cells; host or cells: HepG2 or HaCaT
Details: compound 10 μM; cell line not given
Procedure: MLKL degradation ability was evaluated in the following method. […] For protein preparation after incubation, cells were washed with 1×TBST, and 60 μL of RIPA lysis buffer containing Halt™ Protease and Phosphatase Inhibitor Cocktail was dispensed into each well. […] For protein quantification, after dispensing sample and BCA (0-4 mg/ml) in a 96 well plate, 100 μL of BCA was dispensed and reacted in a 37° C. incubator for 30 minutes. […]
QUANTITY_KIND: Degradation assay (Degradation %) 10 μM
Provide the measurement as a number trailed by its unit.

Nc1ncc(-c2cnn(C3CCN(CCCCCCNC(=O)C4CN(c5ccc6c(c5)C(=O)N(C5CCC(=O)NC5=O)C6=O)C4)CC3)c2)nc1C(=O)O[C@@H](C(=O)Nc1ccc(F)cc1)c1ccccc1 (some centres unmarked) [TDH-114] = 62.79%
Nc1ncc(-c2cnn(C3CCN(C(=O)CC4CCN(C(=O)CNc5ccc6nnn(C7CCC(=O)NC7=O)c(=O)c6c5)CC4)CC3)c2)nc1C(=O)O[C@@H](C(=O)Nc1ccc(F)cc1)c1ccccc1 (some centres unmarked) [TDH-405] = 64.30%

Request: Quick check: Degradation assay (Degradation %) 10 μM of COc1ccc(C(=O)N2CCC(OCCN3CCC(CN4CCC(n5cc(-c6cnc(N)c(C(=O)O[C@@H](C(=O)Nc7ccc(F)cc7)c7ccccc7)n6)cn5)CC4)CC3)CC2)cc1N1CCC(=O)NC1=O [TDH-506] ?
Result: 88.65%

Request: Entry under review: Nc1ncc(-c2cnn(C3CCN(CCCN4CCN(CC5CCN(C(=O)CNc6ccc7c(c6)C(=O)N(C6CCC(=O)NC6=O)C7=O)CC5)CC4)CC3)c2)nc1C(=O)O[C@@H](C(=O)Nc1ccc(F)cc1)c1ccccc1 (some centres unmarked) [TDH-441] . Reported Degradation assay (Degradation %) 10 μM?
Result: 87.7%

Request: Reported Degradation assay (Degradation %) 10 μM, compound Nc1ncc(-c2cnn(C3CCN(C[C@H]4CC[C@H](CNC(=O)CNc5ccc6c(c5)C(=O)N(C5CCC(=O)NC5=O)C6=O)CC4)CC3)c2)nc1C(=O)O[C@@H](C(=O)Nc1ccc(F)cc1)c1ccccc1 (some centres unmarked) [TDH-348] : ____
Result: 81.15%
